pKd: −log10 of the molar value.
A short record of pKd observed with human PDHK2 (12-407) (Homo sapiens (Human), UniProt Q15119) follows.

C[C@@](O)(C(=O)N1CCc2c(ncn2-c2ccc(Cl)cc2)C1)C(F)(F)F [Compound A45] | > 6.52

With those in mind, consider the next molecule.
Req: State measured pKd of the molecule C[C@@](O)(C(=O)N1CCc2c(ncn2-c2ccc(F)cc2)C1)C(F)(F)F [Compound A44] with human PDHK2 (12-407) (Homo sapiens (Human), UniProt Q15119).
Resp: > 6.52
